Target: T1, human MCH-2R (human, UniProt Q969V1 1-340)
T1 construct: Function: 293AEQ17/MCH-2R cells; also called hMCH-2R
T1 sequence (Q969V1 whole entry): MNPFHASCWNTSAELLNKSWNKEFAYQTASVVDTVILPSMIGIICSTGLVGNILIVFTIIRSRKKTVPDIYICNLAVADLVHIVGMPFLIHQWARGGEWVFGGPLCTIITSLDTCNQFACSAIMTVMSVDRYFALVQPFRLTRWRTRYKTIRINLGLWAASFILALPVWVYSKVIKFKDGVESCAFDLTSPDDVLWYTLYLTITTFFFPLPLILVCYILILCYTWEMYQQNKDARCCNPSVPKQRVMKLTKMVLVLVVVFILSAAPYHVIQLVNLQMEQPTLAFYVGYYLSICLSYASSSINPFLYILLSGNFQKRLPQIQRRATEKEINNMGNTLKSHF
Test: SPA, displacement of [125I]-[Phe13,Tyr19]-hMCH, MCH-2R membranes
pIC50: −log10 of the molar value. Positions of bridges follow the written chain, without caps; N, C: chain ends. No end group written: not given here.
Measured quantity: pIC50

binder="DFDMLRCMLGRVYRPCWQV (disulfide 7-16 (inferred)) [human MCH]" measured_quantity=pIC50 experimental_result=9.30
binder="Ac-RCMLLRVYRPC-NH2 (disulfide 2-11 (inferred)) [SEQ. ID. NO. 17 (Leu^10 analog of Ac-hMCH(6-16)-NH2)]" measured_quantity=pIC50 experimental_result=7.57
binder="Ac-RCMLGRVYRPC-NH2 (disulfide 2-11 (inferred), also called ID; NO; parent compound) [Ac-hMCH(6-16)-NH2]" measured_quantity=pIC50 experimental_result=8.70
binder="Ac-RCMLARVYRPC-NH2 (disulfide 2-11 (inferred)) [SEQ. ID. NO. 16 (Ala^10 analog of Ac-hMCH(6-16)-NH2)]" measured_quantity=pIC50 experimental_result=8.15
